- tested_on: UniProt:O95931
- Sequence (O95931 whole entry): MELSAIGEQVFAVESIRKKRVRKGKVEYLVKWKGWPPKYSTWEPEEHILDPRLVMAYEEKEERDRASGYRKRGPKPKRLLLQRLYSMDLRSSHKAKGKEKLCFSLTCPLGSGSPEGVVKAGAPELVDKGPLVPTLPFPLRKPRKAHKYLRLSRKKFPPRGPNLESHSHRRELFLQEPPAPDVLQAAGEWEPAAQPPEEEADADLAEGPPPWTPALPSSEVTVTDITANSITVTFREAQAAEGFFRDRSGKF
Non-standard residues stand in square brackets, D forms with d. Residues, ends and D or L forms follow the SMILES beside them. *: point of attachment. X1 = O=C(O)c1cc(NC(=S)*)ccc1-c1c2ccc(=O)cc-2oc2cc(O)ccc12; Lys(Me3) = C[N+](C)(C)CCCC[C@H](N)C(=O)O; Benzoyl(4-Br) = O=C(c1ccc(Br)cc1)*; Gly(cPent) = N[C@H](C(=O)O)C1CCCC1; Abu = CC[C@H](N)C(=O)O; βAla = NCCC(=O)O
readout_label: log10 Kd (log10 of the value in nM)

>>> value_observed("CC[C@H](NC(=O)[C@H](Cc1ccccc1)NC(=O)[C@H](Cc1ccccc1)NC(C)=O)C(=O)N[C@H](C(=O)N[C@@H](CCCC[N+](C)(C)C)C(=O)N[C@@H](CO)C(=O)N[C@@H](CCC(=O)O)C(=O)N[C@@H](CCCCNC(=S)Nc1ccc(-c2c3ccc(=O)cc-3oc3cc(O)ccc23)c(C(=O)O)c1)C(N)=O)C1CCCC1 (Ac-FF[Abu][Gly(cPent)][Lys(Me3)]SEK(X1)-NH2)")
3.18
>>> value_observed("C[C@H](NC(=O)[C@H](Cc1ccccc1)NC(=O)c1ccc(Br)cc1)C(=O)N[C@@H](Cc1ccc(O)cc1)C(=O)N[C@@H](CCCC[N+](C)(C)C)C(=O)N[C@@H](CO)C(=O)N[C@@H](CCC(=O)O)C(=O)N[C@@H](CCCCNC(=S)Nc1ccc(-c2c3ccc(=O)cc-3oc3cc(O)ccc23)c(C(=O)O)c1)C(N)=O ({Benzoyl(4-Br)}-FAY[Lys(Me3)]SEK(X1)-NH2)")
1.08
>>> value_observed("CC(C)C[C@H](NC(=O)[C@H](CO)NC(=O)[C@H](CCCC[N+](C)(C)C)NC(=O)[C@H](Cc1ccc(O)cc1)NC(=O)[C@H](C)NC(=O)[C@H](Cc1ccccc1)NC(=O)c1ccc(Br)cc1)C(=O)N[C@@H](CCCCNC(=S)Nc1ccc(-c2c3ccc(=O)cc-3oc3cc(O)ccc23)c(C(=O)O)c1)C(N)=O ({Benzoyl(4-Br)}-FAY[Lys(Me3)]SLK(X1)-NH2)")
1.04
>>> value_observed("CC(C)C[C@H](NC(=O)[C@H](C)NC(=O)[C@H](Cc1ccccc1)NC(=O)CCNC(=S)Nc1ccc(-c2c3ccc(=O)cc-3oc3cc(O)ccc23)c(C(=O)O)c1)C(=O)N[C@@H](CCCC[N+](C)(C)C)C(=O)N[C@@H](CO)C(N)=O ({X1-βAla}-FAL[Lys(Me3)]S-NH2)")
2.85
>>> value_observed("CC(=O)N[C@@H](Cc1ccccc1)C(=O)N[C@@H](Cc1ccccc1)C(=O)N[C@@H](C)C(=O)N[C@@H](CC(C)C)C(=O)N[C@@H](CCCC[N+](C)(C)C)C(=O)N[C@@H](CO)C(=O)N[C@@H](CCC(=O)O)C(=O)N[C@@H](CCCCNC(=S)Nc1ccc(-c2c3ccc(=O)cc-3oc3cc(O)ccc23)c(C(=O)O)c1)C(N)=O (Ac-FFAL[Lys(Me3)]SEK(X1)-NH2)")
3.18
>>> value_observed("CC(C)C[C@H](NC(=O)[C@H](C)NC(=O)[C@H](Cc1ccccc1)NC(=O)[C@H](Cc1ccccc1)NC(=O)CCNC(=S)Nc1ccc(-c2c3ccc(=O)cc-3oc3cc(O)ccc23)c(C(=O)O)c1)C(=O)N[C@@H](CCCC[N+](C)(C)C)C(=O)N[C@@H](CO)C(N)=O ({X1-βAla}-FFAL[Lys(Me3)]S-NH2)")
3.20
>>> value_observed("CC[C@H](NC(=O)[C@H](Cc1ccccc1)NC(=O)c1ccc(Br)cc1)C(=O)N[C@H](C(=O)N[C@@H](CCCC[N+](C)(C)C)C(=O)N[C@@H](CO)C(=O)N[C@@H](CCC(=O)O)C(=O)N[C@@H](CCCCNC(=S)Nc1ccc(-c2c3ccc(=O)cc-3oc3cc(O)ccc23)c(C(=O)O)c1)C(N)=O)C1CCCC1 ({Benzoyl(4-Br)}-F[Abu][Gly(cPent)][Lys(Me3)]SEK(X1)-NH2)")
2.20
